Taken from patent US10899737B2.

- target-of-assay: MAGL (Homo sapiens, UniProt Q99685)
- Construct: Proteomes (human prefrontal cortex or cell membrane fractions); from tissue
- Sequence (Q99685 whole entry): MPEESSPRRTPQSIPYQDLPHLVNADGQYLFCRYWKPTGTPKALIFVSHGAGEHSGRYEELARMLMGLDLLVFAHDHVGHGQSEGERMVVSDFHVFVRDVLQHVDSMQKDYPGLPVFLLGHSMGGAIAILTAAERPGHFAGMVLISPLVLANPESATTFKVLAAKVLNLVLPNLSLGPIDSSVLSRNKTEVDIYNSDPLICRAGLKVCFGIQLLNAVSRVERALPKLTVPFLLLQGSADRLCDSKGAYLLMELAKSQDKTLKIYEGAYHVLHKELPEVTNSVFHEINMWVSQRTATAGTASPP
- assay-overview: In vitro competitive activity-based protein profiling (human), MAGL
- Format: biochemical
- assay-context: human PC3
value-type: IC50

Recorded results for 8 compounds are shown here.
INSERT INTO results (compound, target_of_assay, value_type, measured) VALUES
  ('O=C(O)CN1CCC2(CC1)CN(c1cc(C(F)(F)F)ccc1CN1CCN(C(=O)OC(C(F)(F)F)C(F)(F)F)CC1)C2', 'MAGL (Homo sapiens, UniProt Q99685)', 'IC50', '≤ 0.1 µM'),
  ('O=C(O)[C@H]1CCCN(c2cc(CN3CCN(C(=O)OC(C(F)(F)F)C(F)(F)F)CC3)cc(C(F)(F)F)c2)C1', 'MAGL (Homo sapiens, UniProt Q99685)', 'IC50', '≤ 0.1 µM'),
  ('O=C(OC(C(F)(F)F)C(F)(F)F)N1CCN(Cc2cccc(Cl)c2C2(C(=O)O)CCCC2)CC1', 'MAGL (Homo sapiens, UniProt Q99685)', 'IC50', '≤ 0.1 µM'),
  ('O=C(O)CNC1CCN(c2cc(C(F)(F)F)ccc2CN2CCN(C(=O)OC(C(F)(F)F)C(F)(F)F)CC2)CC1', 'MAGL (Homo sapiens, UniProt Q99685)', 'IC50', '≤ 0.1 µM'),
  ('O=C(O)CNCC1CCN(c2cc(C(F)(F)F)ccc2CN2CCN(C(=O)OC(C(F)(F)F)C(F)(F)F)CC2)CC1', 'MAGL (Homo sapiens, UniProt Q99685)', 'IC50', '≤ 0.1 µM'),
  ('O=C(O)Cn1ccc(-c2ccccc2CN2CCN(C(=O)OC(C(F)(F)F)C(F)(F)F)CC2)n1', 'MAGL (Homo sapiens, UniProt Q99685)', 'IC50', '0.1 to 1 µM'),
  ('O=C(O)CN1CC2CC1CN2c1cc(C(F)(F)F)ccc1CN1CCN(C(=O)OC(C(F)(F)F)C(F)(F)F)CC1 (centres unmarked)', 'MAGL (Homo sapiens, UniProt Q99685)', 'IC50', '≤ 0.1 µM'),
  ('O=C(OC(C(F)(F)F)C(F)(F)F)N1CCN(Cc2ccccc2C2(C(=O)O)CCCC2)CC1', 'MAGL (Homo sapiens, UniProt Q99685)', 'IC50', '≤ 0.1 µM');

Incoming: Please give measured IC50 of the following entry: O=C(O)CN1CCC(c2cc(C(F)(F)F)ccc2CN2CCN(C(=O)OC(C(F)(F)F)C(F)(F)F)CC2)CC1
Outgoing: 0.1 to 1 µM

Incoming: Please give measured IC50 of the following entry: O=C(OC(C(F)(F)F)C(F)(F)F)N1CCN(Cc2cc(C(F)(F)F)cc(C3(C(=O)O)CCCC3)c2)CC1
Outgoing: ≤ 0.1 µM

Incoming: Please give measured IC50 of the following entry: O=C(O)C1CCN(Cc2cc(C(F)(F)F)ccc2CN2CCN(C(=O)OC(C(F)(F)F)C(F)(F)F)CC2)CC1
Outgoing: 0.1 to 1 µM

Incoming: Please give measured IC50 of the following entry: O=C(O)CN1CCCC12CCN(c1cc(C(F)(F)F)ccc1CN1CCN(C(=O)OC(C(F)(F)F)C(F)(F)F)CC1)CC2
Outgoing: ≤ 0.1 µM

Incoming: Please give measured IC50 of the following entry: O=C(O)CN1CC2CN(c3cc(C(F)(F)F)ccc3CN3CCN(C(=O)OC(C(F)(F)F)C(F)(F)F)CC3)CC2C1 (centres unmarked)
Outgoing: ≤ 0.1 µM

Incoming: Please give measured IC50 of the following entry: O=C(O)CN1CCC2(CC1)CCN(c1cc(C(F)(F)F)ccc1CN1CCN(C(=O)OC(C(F)(F)F)C(F)(F)F)CC1)C2
Outgoing: ≤ 0.1 µM

* * *

- target-of-assay: MAGL (Mus musculus, UniProt O35678)
- Construct: Proteomes (mouse brain membrane fraction or cell lysates); from tissue; host or cells: mouse brain membrane fraction or cell lysates
- Sequence (O35678 whole entry): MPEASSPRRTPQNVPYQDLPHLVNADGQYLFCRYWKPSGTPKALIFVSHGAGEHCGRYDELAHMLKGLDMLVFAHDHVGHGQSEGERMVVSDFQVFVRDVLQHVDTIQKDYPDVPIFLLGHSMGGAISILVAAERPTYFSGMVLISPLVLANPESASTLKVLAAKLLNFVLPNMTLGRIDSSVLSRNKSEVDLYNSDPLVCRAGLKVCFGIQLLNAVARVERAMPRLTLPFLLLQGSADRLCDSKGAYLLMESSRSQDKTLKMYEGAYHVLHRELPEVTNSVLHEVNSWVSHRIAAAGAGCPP
- assay-overview: Mouse brain proteomes from inhibitor treated mice, MAGL inhibition
- Assay type: in vivo
- assay-context: 5 mg/kg oral gavage, C57Bl/6J mouse brain, 4 h following administration; read-out: MAGL % inh. 5 mg/kg (mouse)
Recorded measurements of inhibition at 5 mg/kg, one per entry

Recorded results for 3 compounds are shown here.
INSERT INTO results (compound, value_type, measured) VALUES
  ('O=C(O)CN1CCCC12CCN(c1cc(C(F)(F)F)ccc1CN1CCN(C(=O)OC(C(F)(F)F)C(F)(F)F)CC1)CC2 [Example 20]', 'inhibition at 5 mg/kg', '0 to 25%'),
  ('O=C(OC(C(F)(F)F)C(F)(F)F)N1CCN(Cc2ccc(C(F)F)cc2C2(C(=O)O)CCCC2)CC1 [Example 27]', 'inhibition at 5 mg/kg', '≥ 75%'),
  ('O=C(O)Cn1ccc(-c2cc(F)ccc2CN2CCN(C(=O)OC(C(F)(F)F)C(F)(F)F)CC2)n1 [Example 13]', 'inhibition at 5 mg/kg', '0 to 25%');

Incoming: Please give measured inhibition at 5 mg/kg of the following entry: O=C(O)[C@@H]1CC(c2cc(C(F)(F)F)ccc2CN2CCN(C(=O)OC(C(F)(F)F)C(F)(F)F)CC2)CN1 (some centres unmarked) [Example 7]
Outgoing: 25 to 50%

Incoming: Please give measured inhibition at 5 mg/kg of the following entry: O=C(O)CN1CCC(c2cc(C(F)(F)F)ccc2CN2CCN(C(=O)OC(C(F)(F)F)C(F)(F)F)CC2)CC1 [Example 31]
Outgoing: 0 to 25%

Incoming: Please give measured inhibition at 5 mg/kg of the following entry: O=C(O)Cn1ccc(-c2cc(C(F)(F)F)ccc2CN2CCN(C(=O)OC(C(F)(F)F)C(F)(F)F)CC2)n1 [Example 3]
Outgoing: 0 to 25%

Incoming: Please give measured inhibition at 5 mg/kg of the following entry: CC1(NCC(=O)O)CCN(c2cc(C(F)(F)F)ccc2CN2CCN(C(=O)OC(C(F)(F)F)C(F)(F)F)CC2)CC1 [Example 51]
Outgoing: 0 to 25%

Incoming: Please give measured inhibition at 5 mg/kg of the following entry: O=C(O)c1csc(-c2cc(C(F)(F)F)ccc2CN2CCN(C(=O)OC(C(F)(F)F)C(F)(F)F)CC2)c1 [Example 10]
Outgoing: 0 to 25%

* * *

- target-of-assay: MAGL (Mus musculus)
- Construct: Proteomes (mouse brain membrane fraction or cell lysates); from tissue; host or cells: mouse brain membrane fraction or cell lysates
- assay-overview: Mouse brain proteomes from inhibitor treated mice, MAGL inhibition
- Type: in vivo
- assay-context: 5 mg/kg oral gavage, C57Bl/6J mouse brain, 4 h following administration; read-out: MAGL % inh. 5 mg/kg (mouse)
- Description: Preparation of Mouse Brain Proteomes from Inhibitor Treated Mice. Inhibitors were administered to wild-type C57Bl/6J by oral gavage in a vehicle of polyethylene glycol. Each animal was sacrificed 4 h following administration and brain proteomes were prepared and analyzed according to previously established methods (See Niphakis, M. J., et al. (2011) ACS Chem. Neurosci. and Long, J. Z., et al. Nat. Chem. Biol. 5:37-44).
Recorded measurements of inhibition at 5 mg/kg, one per entry

Recorded results for 3 compounds are shown here.
INSERT INTO results (compound, measured) VALUES
  ('O=C(O)CN1CC2CN(c3cc(C(F)(F)F)ccc3CN3CCN(C(=O)OC(C(F)(F)F)C(F)(F)F)CC3)CC2C1 (stereo not shown)', '0 to 25%'),
  ('Cc1ccc(CN2CCN(C(=O)OC(C(F)(F)F)C(F)(F)F)CC2)c(N2CCC(C(=O)O)CC2)c1F', '≥ 75%'),
  ('CC1(C(=O)O)CCN(c2cc(C(F)(F)F)ccc2CN2CCN(C(=O)OC(C(F)(F)F)C(F)(F)F)CC2)C1 (stereo not shown)', '25 to 50%');

Incoming: Please give measured inhibition at 5 mg/kg of the following entry: O=C(O)CN1CCC(c2cc(C(F)(F)F)ccc2CN2CCN(C(=O)OC(C(F)(F)F)C(F)(F)F)CC2)C1 (stereo not shown)
Outgoing: 50 to 75%

Incoming: Please give measured inhibition at 5 mg/kg of the following entry: O=C(O)CC1CCN(c2cc(C(F)(F)F)ccc2CN2CCN(C(=O)OC(C(F)(F)F)C(F)(F)F)CC2)CC1
Outgoing: ≥ 75%

Incoming: Please give measured inhibition at 5 mg/kg of the following entry: O=C(O)CN1CCC2(CCN(c3cc(C(F)(F)F)ccc3CN3CCN(C(=O)OC(C(F)(F)F)C(F)(F)F)CC3)CC2)C1
Outgoing: 0 to 25%

Incoming: Please give measured inhibition at 5 mg/kg of the following entry: O=C(O)C1CCN(c2cc(OC(F)(F)F)ccc2CN2CCN(C(=O)OC(C(F)(F)F)C(F)(F)F)CC2)CC1
Outgoing: ≥ 75%
